- Method summary: protein stability index of a GFP-peptide fusion (GPS, HEK-293T) (PSI 1-6); higher = more stable;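 note: 24-mer peptide tiles fused after GFP, lentivirally expressed, FACS-sorted into six equal bins by GFP/DsRed ratio, decoded by Illumina sequencing, PSI is the read-weighted mean bin number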
- Condition: treatment: MLN4924 1 uM, 8 h; c terminus: a fixed tail appended
Measured quantity: protein stability index
// response body must contain only the number

Examples with their reported protein stability index follow.
* IINDTYSEVKEELAGQKDELQLSD [PKD2L1] | 5.28
* LDVTVQSFGWSDRAKVKTDDIARI [FAM98B] | 2.89

Query: Which protein stability index value belongs to YKDRQKFSEQVFKVASSDLVNMGI [FLOT1] ?
Reply: 2.77

Query: Which protein stability index value belongs to MAEQSDEAVKYYTLEEIQKHNHSK [CYB5A] ?
Reply: 5.28

Query: Which protein stability index value belongs to ISQEEFARQLQLSDPQTVAGAFGY [LPCAT4] ?
Reply: 3.09

Query: Which protein stability index value belongs to PDSVPSLQNMGLLLDKLAKENQDI [PBXIP1] ?
Reply: 4.42

* * *

- Method summary: protein stability index of a GFP-peptide fusion (GPS, HEK-293T) (PSI 1-6); higher = more stable
- Condition: treatment: MLN4924 1 uM, 8 h; c terminus: a fixed tail appended
Measured quantity: protein stability index
// response body must contain only the number

- PWVYILLRKAVLKNLYKLASQCCG [PTGFR]: 2.22
- VETARSHQRSSSESYTQSFQSRKP [PI4K2A]: 5.04
- VLGINRAYGKNSLSKNLIKMLSKA [AUH]: 2.24
- EMRFAKMPDEPVEAPALPAPAAPM [BRD3]: 4.8

Query: Which protein stability index value belongs to GLVKKYMNSLLIGELSPEQPSFEP [FADS1] ?
Reply: 2.34

Query: Which protein stability index value belongs to ESDSQGQGNGLFYSSGPQSWYPKA [ZC2HC1C] ?
Reply: 3.72

* * *

- Method summary: protein stability index of a GFP-peptide fusion (GPS, HEK-293T) (PSI 1-6); higher = more stable
- Condition: treatment: DMSO; c terminus: a fixed tail appended
Measured quantity: protein stability index
// response body must contain only the number

Query: Which protein stability index value belongs to RNEGVSSVLLGASNADQLMENIGA [KCNAB2] ?
Reply: 4.25

Query: Which protein stability index value belongs to FPDLNTYIYYNEKYGGPNHHLPLP [CPN1] ?
Reply: 2.15

Query: Which protein stability index value belongs to MEKIPFVLGGNLQGGELVVAYPYD [CPXM2] ?
Reply: 2.81

Query: Which protein stability index value belongs to EPPKPTFPAYTQSTASTTSTTNST [ZNF207] ?
Reply: 5.39

Query: Which protein stability index value belongs to SSGRKWGDDAPKEEVDTGAVNLIE [INTS4] ?
Reply: 5.22

Query: Which protein stability index value belongs to LFYSAEVEMLCDQAWGSMLEVPAG [CCDC3] ?
Reply: 1.92

Query: Which protein stability index value belongs to VIQPALPGQPLPGASVRGLHPVQK [TRAF3IP2] ?
Reply: 3.76

* * *

- Method summary: protein stability index of a GFP-peptide fusion (GPS, HEK-293T) (PSI 1-6); higher = more stable
- Condition: treatment: DMSO; c terminus: a fixed tail appended
Measured quantity: protein stability index
// response body must contain only the number

Examples with their reported protein stability index follow.
* LNEDPLKWWSDRLALFPLLPKVLQ [ZBED1] | 2.2
* NGVTQKASAPTYPSLYSSYHQGCL [NANOGP8] | 2.75
* HPEVKCVGSVALTALVTVSSEEFE [C8orf76] | 3.27
* FTKNNFFVEKNPTIVNFPITNVDL [USP39] | 2.98
* GARAALNEIESRHRELLRLESRIR [STX11] | 3.46

Query: Which protein stability index value belongs to NYYEVGSNRGAYVKLGPALTPHIV [PPEF2] ?
Reply: 2.19

Query: Which protein stability index value belongs to AAASGAAGGGGGGAGAGAPGGGRL [INTS3] ?
Reply: 4.98

Query: Which protein stability index value belongs to ASSGLTVEVDAPKSQDLAKIMADI [KRT18] ?
Reply: 4.45

Query: Which protein stability index value belongs to AAAATVLLRTARVRRECWFLPTAL [SLC19A2] ?
Reply: 2.51

Query: Which protein stability index value belongs to GVEEIKGHPFFEGVDWEHIRERPA [STK38L] ?
Reply: 3.97

Query: Which protein stability index value belongs to ADSLDFDETFLATSFLQHPWDESG [FOXJ1] ?
Reply: 4.22

Query: Which protein stability index value belongs to QHLPAQEQWDRLLVLYPTSLAIFS [PLEKHN1] ?
Reply: 2.55

Query: Which protein stability index value belongs to IFAWNKWIDIKQFVWYTPPTFMIA [STEAP1] ?
Reply: 2.97

Query: Which protein stability index value belongs to FLKNTEVSSMECEKNLYWICNKPY [CD69] ?
Reply: 2.32

Query: Which protein stability index value belongs to ERHTMDLTVEGFQSWMWRGLTFLL [TMEM120A] ?
Reply: 2.11
